Target: Human B7H3 (plate-coated protein, ELISA) (human) (UniProt Q5ZPR3)
Assay: ELISA, antigen coated on plate, anti-human IgG-HRP
measurement_type: EC50 (nM)
Number in nM, nothing else.

Incoming: Tell us which EC50 value is on record for #27-22 (VH2-2-VL2-2) (antibody, IgG1, V domains shown, Humanized antibody from murine #27; also called #27-VH2-2/VL2-2) VH: QVQLVQSGAEVVKPGASVKVSCKASGYTFTNYWMHWVKQAPGQGLEWIGMIHPNSGAFNYNERFKTRVTITVDKSTSTAYMELSSLRSEDTAVYYCARSTALATGYWGQGTLLTVSS VL: DIQLTQSPSFLSASVGDRVTMTCSASSSVSYMYWYQQKPGKSPKLLIYDTSNLASGVPSRFSGSGSGTEYTLTISSLQPEDFVTYYCQQWSSYPLTFGQGTKLEIK
Outgoing: 0.333
